- study-system: T1, human IL-18 binding protein isoform a (IL-18BPa) (Homo sapiens, UniProt O95998)
- T1 sequence (O95998 31-194): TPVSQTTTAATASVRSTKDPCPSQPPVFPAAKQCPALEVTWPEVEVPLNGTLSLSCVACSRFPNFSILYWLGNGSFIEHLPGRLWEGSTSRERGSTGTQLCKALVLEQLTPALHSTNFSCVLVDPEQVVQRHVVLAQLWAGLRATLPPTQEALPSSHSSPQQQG
- experiment: IL-18 Binding Protein inhibition cellular assay in NK-92 cells (Example 4 / 17C)
- Assay type: cell-based
- condition: inhibition by IL-18BP of IFNγ stimulation in NK92 cells
Criterion: IC50 strictly less than 5 nM. Met: t. Not met: f.

Worked set:
C168: IL-18 polypeptide: V11I, C38A, C76A, S105K, C127A (protein) YFGKLESKLSIIRNLNDQVLFIDQGNRPLFEDMTDSDARDNAPRTIFIISMYKDSQPRGMAVTISVKCEKISTLSAENKIISFKEMNPPDNIKDTKSDIIFFQRKVPGHDNKMQFESSSYEGYFLAAEKERDLFKLILKKEDELGDRSIMFTVQNED | t
C144: IL-18 polypeptide: V11I, C38A, K53A, T63A, C76A, C127A (protein) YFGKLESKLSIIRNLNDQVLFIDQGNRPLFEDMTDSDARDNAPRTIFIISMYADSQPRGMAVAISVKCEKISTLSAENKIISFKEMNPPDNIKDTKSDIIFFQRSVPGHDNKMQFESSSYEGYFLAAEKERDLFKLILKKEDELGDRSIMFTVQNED | f

Q: Confirm or reject: IC50 of C147: IL-18 polypeptide: V11I, C38A, K53A, D54A, C76A, C127A (protein) YFGKLESKLSIIRNLNDQVLFIDQGNRPLFEDMTDSDARDNAPRTIFIISMYAASQPRGMAVTISVKCEKISTLSAENKIISFKEMNPPDNIKDTKSDIIFFQRSVPGHDNKMQFESSSYEGYFLAAEKERDLFKLILKKEDELGDRSIMFTVQNED lies strictly below 5 nM
Ans: f

Q: In plain terms, does C165: IL-18 polypeptide: V11I, C38A, S55R, C76A, C127A (protein) YFGKLESKLSIIRNLNDQVLFIDQGNRPLFEDMTDSDARDNAPRTIFIISMYKDRQPRGMAVTISVKCEKISTLSAENKIISFKEMNPPDNIKDTKSDIIFFQRSVPGHDNKMQFESSSYEGYFLAAEKERDLFKLILKKEDELGDRSIMFTVQNED come in under 5 nM for IC50?
Ans: t

Q: Take the molecule C155: IL-18 polypeptide: V11I, C38A, D40A, K53A, C76A, C127A (protein) YFGKLESKLSIIRNLNDQVLFIDQGNRPLFEDMTDSDARANAPRTIFIISMYADSQPRGMAVTISVKCEKISTLSAENKIISFKEMNPPDNIKDTKSDIIFFQRSVPGHDNKMQFESSSYEGYFLAAEKERDLFKLILKKEDELGDRSIMFTVQNED and say whether its IC50 is less than 5 nM.
Ans: t

Origin of values: patent US12383631B2
